# protein stability index per entry
B1: KCNA3 (parent)
chain: GERVVINISGLRFETQLKTLCQFP

- Variants of: B1
- TEST: protein stability index of a GFP-peptide fusion (GPS, HEK-293T) (PSI 1-6); higher = more stable;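 further: lentivirally expressed fusions sorted by FACS into six bins by GFP to DsRed ratio, PSI derived from sequencing read proportions per bin multiplied by bin number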
- TEST PARAMETERS: c terminus: a fixed tail appended

SEQ TEXT | protein stability index
GKRVVINISGLRFETQLKTLCQFP | 2.2
GERVVISISGLRFETQLKTLCQFP | 4.73
GERVVINISGLRFETQLKTLCQFC | 2.4
GERVVINIPGLRFETQLKTLCQFP | 1
GERVVINISGLRFENQLKTLCQFP | 3.66
GERVVINISGLRPETQLKTLCQFP | 2.27
IERVVINISGLRFETQLKTLCQFP | 3.44
GERVVINISGLRFETQLRTLCQFP | 2.29
GERVVINISGLRFETQLKTLCQFY | 2.26
GERVVINISGLRFNTQLKTLCQFP | 2.08
GERVVINISGLQFETQLKTLCQFP | 2.21
GELVVINISGLRFETQLKTLCQFP | 2.75
GERVVIHISGLRFETQLKTLCQFP | 4.19
GERVVINISGLNFETQLKTLCQFP | 2.85
GERVVINIVGLRFETQLKTLCQFP | 1.83
GERVVINISGLRFERQLKTLCQFP | 2.69
GERVVINISGLRFETQLKTLHQFP | 1.91
GERVVINWSGLRFETQLKTLCQFP | 1.76
GERVVINISVLRFETQLKTLCQFP | 1
GERVVINISGLRFETQLKTLCQTP | 1.36
GERVVINISGLRFETQLKTLCQCP | 3.65
GERVVINISGLRFETQLKTRCQFP | 2.84
GEQVVINISGLRFETQLKTLCQFP | 3.4
GERRVINISGLRFETQLKTLCQFP | 2.28
GERVVINISGLRFETQTKTLCQFP | 2.85
GERVVINISGLRFETQLKTSCQFP | 2.34
GERVVINIFGLRFETQLKTLCQFP | 2.47
GERVSINISGLRFETQLKTLCQFP | 1.67
GEPVVINISGLRFETQLKTLCQFP | 2.26
GERVVINISGLRFETQLKTLCQNP | 1.52
GERVVINISGLWFETQLKTLCQFP | 2.37
GERVVINISGLRFETQVKTLCQFP | 2.92
GGRVVINISGLRFETQLKTLCQFP | 2.35
GERVVINISGLRFETQLKTLTQFP | 2.68
GEGVVINISGLRFETQLKTLCQFP | 1.85
GERVVINISGLRTETQLKTLCQFP | 1.56
GERVVINISGLRFETQLKRLCQFP | 1.32

Every entry's value here was drawn from the supplement of paper PMC10567573.
